EXPERIMENTAL_TARGET: 4-galactosyl-N-acetylglucosaminide 3-alpha-L-fucosyltransferase FUT5 (Homo sapiens, UniProt Q11128)
Sequence (Q11128 whole entry): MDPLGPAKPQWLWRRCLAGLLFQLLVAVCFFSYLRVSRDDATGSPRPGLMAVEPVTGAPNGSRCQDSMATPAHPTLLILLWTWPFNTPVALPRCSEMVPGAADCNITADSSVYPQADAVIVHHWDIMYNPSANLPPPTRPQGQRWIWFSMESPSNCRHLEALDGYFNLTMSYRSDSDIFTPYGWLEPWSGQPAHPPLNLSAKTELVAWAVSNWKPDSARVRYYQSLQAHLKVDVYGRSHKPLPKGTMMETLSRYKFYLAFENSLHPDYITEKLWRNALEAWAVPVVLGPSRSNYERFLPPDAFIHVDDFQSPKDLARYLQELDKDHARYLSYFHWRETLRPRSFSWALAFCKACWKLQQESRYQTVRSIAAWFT
METHOD: Inhibitory activity against fucosyltransferase (FucT V) in the presence of fucosyl acceptor N-acetyllactosamine
PROPERTY_NAME: pIC50
The read-out pIC50 is expressed as -log10 of concentration in moles per litre.

Dear colleague, I am looking for the recorded pIC50 of the following compound: Nc1nc2c(ncn2[C@@H]2O[C@H](COP(=O)(O)OP(=O)(O)O)[C@@H](O)[C@H]2O)c(=O)[nH]1 4.17
